# System: EKVX NSCLC
# PROCEDURE_DETAILS: NCI tumour cell line growth inhibition, 48 h
Quick reference for TGI among some compounds

These solved cases illustrate the format of a correct answer.
[
  {
    "COMPOUND": "Cc1ccccc1C(C#N)/C(=N/NC(=O)C(=O)NN)C(=O)Nc1cccc(C(F)(F)F)c1 (configuration not stated)",
    "MEASUREMENT_TARGET": "EKVX NSCLC",
    "TGI": "> 100 µM"
  },
  {
    "COMPOUND": "CC(C)[C@H](NC(=O)[C@@H](O)[C@H](N)Cc1ccccc1)C(=O)N[C@@H](Cc1ccccc1)C(=O)O",
    "MEASUREMENT_TARGET": "EKVX NSCLC",
    "TGI": "> 100 µM"
  },
  {
    "COMPOUND": "O=C(/C=C/c1ccc2c(c1)OCO2)c1ccccc(=O)c1O",
    "MEASUREMENT_TARGET": "EKVX NSCLC",
    "TGI": "> 100 µM"
  },
  {
    "COMPOUND": "NS(=O)(=O)c1ccc(NCc2cnc3ccccc3c2)cc1",
    "MEASUREMENT_TARGET": "EKVX NSCLC",
    "TGI": "> 100 µM"
  },
  {
    "COMPOUND": "[O-][n+]1onc2c1-c1nonc1CC2",
    "MEASUREMENT_TARGET": "EKVX NSCLC",
    "TGI": "81.6 µM"
  }
]

Task item: TGI of CC(C)(C)OC(=O)N1C(=O)OC[C@@H]2C=C[C@@H]21 on EKVX NSCLC?
Reply: > 100 µM

Task item: Another compound to look at: O=C(CN1CCCC1)Nc1ccc2sc3ccccc3c(=O)c2n1
Reply: > 100 µM

Task item: Another compound to look at: O=C1CC23CC(=O)CC2(C1)c1ccccc1C3=O (configuration not stated)
Reply: > 100 µM

Task item: Another compound to look at: O=C(Nc1ccc(Cl)cc1Cl)/C(Cl)=C1/Sc2ccccc2NC1=O
Reply: > 100 µM

Task item: Another compound to look at: N=C1N=Nc2nc(C3(c4nc5n(c4O)C(=N)N=N5)Cc4ccccc4C3=O)c(O)n21 (configuration not stated)
Reply: > 100 µM

Task item: Another compound to look at: N.N.N.N.O=S(=O)([O-])[O-].[Co+3].[OH3+].[OH3+]
Reply: > 100 µM

Task item: Another compound to look at: Nc1nc(Cl)cc(NCC2(CO)CCC(OCc3ccccc3)C2)n1 (configuration not stated)
Reply: 59.4 µM

Task item: Another compound to look at: CC(=O)/C=C/c1ccc(N(C)Cc2ccc(C(C)(C)C)cc2)cc1
Reply: 392 µM

Task item: Another compound to look at: N#C/C(N)=C(\C#N)N=CNc1ccccc1N
Reply: > 100 µM

Task item: Another compound to look at: O=c1nc2[nH]nc(-c3ccccc3)c2n[nH]1
Reply: > 100 µM

Task item: Another compound to look at: O=C(CN/C=C\C(=O)c1cc(Cl)ccc1Cl)c1ccccc1
Reply: 99.2 µM

Task item: Another compound to look at: C/C(CN1C(=O)c2ccccc2C1=O)=N\NS(C)(=O)=O
Reply: > 100 µM

Task item: Another compound to look at: Cc1ccc(C2CC(c3cccc(Nc4ccncc4)c3)=NN2c2ccc(Cl)cc2)cc1 (configuration not stated)
Reply: 2.88 µM

###

# System: NCI/ADR-RES ovarian
# PROCEDURE_DETAILS: NCI tumour cell line growth inhibition, 48 h
Quick reference for TGI among some molecules

[
  {
    "MOLECULE": "C(=N/Nc1ccccn1)/c1cccnc1",
    "MEASUREMENT_TARGET": "NCI/ADR-RES ovarian",
    "TGI": "> 100 µM"
  },
  {
    "MOLECULE": "COc1ccc2c(c1)N(CCC1CCCCN1C)c1ccccc1S2 (stereo unspecified)",
    "MEASUREMENT_TARGET": "NCI/ADR-RES ovarian",
    "TGI": "25.4 µM"
  },
  {
    "MOLECULE": "Clc1ccc(-c2cc(-c3nc4ccccc4[nH]3)no2)cc1",
    "MEASUREMENT_TARGET": "NCI/ADR-RES ovarian",
    "TGI": "73.5 µM"
  }
]

Task item: Param item = CC[C@@H]1C[C@@H](O)[C@@H]2[C@H](O)[C@H](O)CN2C1 ; retrieve measured TGI.
Reply: > 100 µM

Task item: Another molecule to look at: O=C(Nc1cccc(-n2cc(-c3ccncc3)c(-c3ccc(O)c(Cl)c3)n2)c1)Nc1ccc(Cl)c(C(F)(F)F)c1
Reply: 9.03 µM

Task item: Another molecule to look at: CCOCC[P+](c1ccccc1)(c1ccccc1)c1ccccc1
Reply: > 100 µM

Task item: Another molecule to look at: O=C1C=Cc2c(I)sc(I)c21
Reply: 67.7 µM

###

# System: HL-60(TB) leukemia
# PROCEDURE_DETAILS: NCI tumour cell line growth inhibition, 48 h
PROPERTY_MEASURED: TGI (µM)
Numbers only; they are read as µM.

These solved cases illustrate the format of a correct answer.
[
  {
    "COMPOUND": "N=c1c2c(=O)n3c(nc2nc2sc4ccc(Cl)cc4n12)-c1ccccc1Sc1ccccc1-3",
    "MEASUREMENT_TARGET": "HL-60(TB) leukemia",
    "REPORTED_RESULT": 6.63
  },
  {
    "COMPOUND": "CCOCC[P+](c1ccccc1)(c1ccccc1)c1ccccc1",
    "MEASUREMENT_TARGET": "HL-60(TB) leukemia",
    "REPORTED_RESULT": 36
  },
  {
    "COMPOUND": "Cc1ccc(C2CC(c3cccc(Nc4ccncc4)c3)=NN2c2ccc(Cl)cc2)cc1 (stereo unspecified)",
    "MEASUREMENT_TARGET": "HL-60(TB) leukemia",
    "REPORTED_RESULT": 4
  }
]

Next compound, TGI to be filled in.
Task item: Param item = Clc1ccc(-c2cc(-c3nc4ccccc4[nH]3)no2)cc1 ; retrieve measured TGI.
Reply: 37.2

###

# Test system: OVCAR-4 ovarian
# PROCEDURE_DETAILS: NCI tumour cell line growth inhibition, 48 h
Quick reference for TGI among some molecules

[
  {
    "MOLECULE": "NS(=O)(=O)c1ccc(NCc2cnc3ccccc3c2)cc1",
    "REPORTED_RESULT": "> 100 µM"
  },
  {
    "MOLECULE": "[O-][N+]1=C(c2ccccc2)COc2ccccc21",
    "REPORTED_RESULT": "> 100 µM"
  }
]

Task item: Param item = O=C1c2cccnc2-c2nccc3ccnc1c23 ; retrieve measured TGI.
Reply: 5.46 µM

Task item: Another molecule to look at: CCNC(=O)Cc1nc2c(=O)[nH]cnc2n1C1OC(CO)C(O)C1O (centres undefined)
Reply: > 100 µM

###

# Tested on: MDA-MB-231 breast
# PROCEDURE_DETAILS: NCI tumour cell line growth inhibition, 48 h; in the data active = GI50 below about 0.43 µM; inactive = the rest
Select the matching outcome among yes (active), no (inactive)

[
  {
    "MOLECULE": "CN(C)CCOc1cccc(NC2=C(Cl)C(=O)C(Nc3cccc(OCCN(C)C)c3)=C(Cl)C2=O)c1",
    "ASSIGNED_CATEGORY": "no"
  },
  {
    "MOLECULE": "C#Cc1ccc(-n2c(/C=C/c3ccc4ccccc4n3)nc3ncccc3c2=O)cc1",
    "ASSIGNED_CATEGORY": "no"
  },
  {
    "MOLECULE": "COc1cccc(-c2cc(NCc3ccc4c(c3)OCO4)nc(N)n2)c1",
    "ASSIGNED_CATEGORY": "yes"
  },
  {
    "MOLECULE": "COc1ccc2c(c1)CC[C@@H]1[C@@H]2CC[C@]2(C)c3c(cc(C(=O)c4ccccc4)c4sccc34)C[C@@H]12",
    "ASSIGNED_CATEGORY": "no"
  }
]

Task item: Recorded test call requested for CCOCC[P+](c1ccccc1)(c1ccccc1)c1ccccc1
Reply: no

Task item: Another molecule to look at: COc1ccc(C2SC(C)C(=O)N2NC(=O)C(O)c2ccccc2)cc1 (centres undefined)
Reply: no

Task item: Another molecule to look at: O=C(Nc1cccc(-n2cc(-c3ccncc3)c(-c3ccc(O)c(Cl)c3)n2)c1)Nc1ccc(Cl)c(C(F)(F)F)c1
Reply: no

Task item: Another molecule to look at: CCNCCNc1cc(C2CCCC2)c(C#N)c2nc3ccccc3n12
Reply: no

Task item: Another molecule to look at: Cc1ccc(C2CC(c3cccc(Nc4ccncc4)c3)=NN2c2ccc(Cl)cc2)cc1 (centres undefined)
Reply: no
